All figures here come from ChEMBL document CHEMBL1201862.

System: K562
assay.details: NCI tumour cell line growth inhibition, 48 h
Activity calls are given as the source filed them. Rule as the data show it: active = GI50 up to about 1.1 µM and inactive = higher.
Output constraint: value belongs to yes for active, no for inactive

# example entries with known answers
| compound | test.system | assigned.category |
| --- | --- | --- |
| N#CSCc1cccc(Nc2cc(=O)[nH]c(=O)[nH]2)c1 | K562 | no |
| CC(=O)O[C@H]1CC[C@@]2(C)C(=CC[C@@H]3[C@@H]2CC[C@]2(C)C(=N/O)/C(=C/c4ccc([N+](=O)[O-])cc4)C[C@@H]32)C1 | K562 | no |
| CC1=C(C(=O)Nc2ccccc2)C(c2ccccc2Cl)C(C(=O)Nc2ccccc2)=C(C)N1 | K562 | no |
| CCOc1ccc(N/C(=C(/C(Cl)=C(/Cl)NC(C)(C)C)[N+](=O)[O-])n2nnc3ccccc32)cc1 | K562 | no |
| COc1ccc([C@@]2(O)c3c(ccc(O)c3OC)[C@H]2OC)c(OC)c1 | K562 | no |
| Oc1ccc(O)c(Sc2nnc(CCCCCCCCc3nnc(Sc4cc(O)ccc4O)o3)o2)c1 | K562 | no |
| COCN1C(=O)[C@@H]2CCCN2C(=O)c2ccc([N+](=O)[O-])cc21 | K562 | no |
| Nc1c(C(=O)c2ccccc2)[nH]c(NCc2ccccc2)c1C(=S)Nc1ccccc1 | K562 | no |

Identify the outcome logged in this assay for the compound shown: COc1cccc(-n2c3nc(=O)n(C)c(=O)c-3nc3ccccc32)c1
no

Identify the outcome logged in this assay for the compound shown: CNC1C(O)C(OC2C(N)CC(N)C(OC3OC(C(C)O)C(O)C(O)C3N)C2O)OCC1(C)O (configuration not stated)
no

Identify the outcome logged in this assay for the compound shown: CC12CCC(C(=O)OC1=O)C2(C)C (configuration not stated)
no

Identify the outcome logged in this assay for the compound shown: C[C@@H](CC(O)C1OC1(C)C)[C@@H]1CC[C@]2(C)C3=CCC4C(C)(C)C(O)CC[C@]4(C)C3CCC12C (some centres not stated)
no

Identify the outcome logged in this assay for the compound shown: CCOC(=O)C(=O)Nc1ccc(C)cc1C
no

Identify the outcome logged in this assay for the compound shown: CN/N=C(/c1nc2ccc([N+](=O)[O-])cc2nc1O)C(O)c1ccc(C(O)/C(=N\NC)c2nc3ccc([N+](=O)[O-])cc3nc2O)cc1 (configuration not stated)
no

Identify the outcome logged in this assay for the compound shown: C=C1CCC2C(C)(CO)C(O)CCC2(C)C1CC(O)/C(=C/CO)C(=O)O (configuration not stated)
no

Identify the outcome logged in this assay for the compound shown: COc1cc(/C=C2\Sc3scc(-c4cccc([N+](=O)[O-])c4)[n+]3C2=O)cc(OC)c1OC
no

Identify the outcome logged in this assay for the compound shown: COC12C=CC(CC1)C1C(=O)c3c(C)c(C)n(C)c3C(=O)C12 (configuration not stated)
no

Identify the outcome logged in this assay for the compound shown: O=C(O)COc1c(Cl)cc(Cl)c2cccnc12
no

Identify the outcome logged in this assay for the compound shown: CC(C)NCCCNc1c2ccccc2nc2cccc([N+](=O)[O-])c12
yes

Identify the outcome logged in this assay for the compound shown: CCC1=C(C)/C(=C/c2[nH]c(CBr)c(CC)c2C)N=C1CBr
no

Identify the outcome logged in this assay for the compound shown: O=C(c1ccccc1)N(CCCCNC(=O)C(F)(F)F)CCCNC(=O)C(F)(F)F
no

====

Tested on: HCT-15
value.kind: GI50

Example cases with answers are listed next.
| molecule | result |
| --- | --- |
| Cc1ccc(S(=O)(=O)NCCCN(CCCNS(=O)(=O)c2ccc(C)cc2)S(=O)(=O)c2ccc(C)cc2)cc1 | > 100 µM |
| CC(C)NCCCNc1c2ccccc2nc2cccc([N+](=O)[O-])c12 | 0.0504 µM |
| COc1ccc(C(OCC2OC(n3ccc(Oc4c(F)c(F)c(F)c(F)c4F)nc3=O)CC2OP(OCCC#N)N(C(C)C)C(C)C)(c2ccccc2)c2ccc(OC)cc2)cc1 (stereo not drawn) | > 100 µM |

Batch request: GI50 per item, same order as input.
1. COc1ccc(C2NC3=C(CCCC3)C3(C#N)C(=O)N=C(N)C23C#N)cc1 (stereo not drawn)
2. C=CC1(c2ccc(OC)cc2)OCCCO1
3. COC(C)(C)[C@@H](O)[C@H]1C[C@H](C)[C@@]2(CC[C@]3(C)[C@@H]2CC[C@@H]2[C@@]4(C)CC[C@@H](OC(C)=O)C(C)(C)[C@@H]4C[C@@H](OC4OC(COC(C)=O)C(O)C(O)C4O)[C@]23C)O1 (stereo partly drawn)
4. O=C(C#CP(=O)(O)c1ccccc1)c1ccccc1
5. C/C=C/CC(S(=O)(=O)c1ccccc1)S(=O)(=O)c1ccccc1

1. > 100 µM
2. > 100 µM
3. 2.39 µM
4. > 100 µM
5. 60 µM

====

Could you please report measured GI50 for the items listed next?
Tested on: 786-0
assay.details: NCI tumour cell line growth inhibition, 48 h
Calls of active or inactive are those of the source. No stated cut-off is given here; in the data, active = GI50 up to about 1.1 µM and inactive = higher.

| compound | result |
| --- | --- |
| CCOc1cc(C=O)c2c(ccc3ccc(OC)c(OC)c32)c1OC | > 100 µM (inactive) |

Batch request: GI50 per item, same order as input.
1. CCCC1C(=O)C(CC)Cc2c(OC)ccc(OC)c21 (stereo not given)
2. O=C([O-])Cc1ccccc1.[Na+] [SODIUM PHENYLACETATE]

> 100 µM (inactive)
1070 µM (inactive)

====

System: OVCAR-8
assay.details: NCI tumour cell line growth inhibition, 48 h
Activity calls are given as the source filed them. No stated cut-off is given here; in the data, active = GI50 up to about 1.1 µM and inactive = higher.
Output constraint: value belongs to active, inactive

# example entries with known answers
| compound | assigned.category |
| --- | --- |
| N#CCN1C(=O)c2cccc3cc([N+](=O)[O-])cc(c23)C1=O | inactive |
| O=c1c2c(-c3ccccc3)c3ccccc3nc2cnn1-c1ccccc1 | inactive |
| O=C(C=P(c1ccccc1)(c1ccccc1)c1ccccc1)c1cccc(-c2cccc([N+](=O)[O-])c2)c1 | inactive |
| CC(C)(Cl)C(Cl)CC/C(CBr)=C(\Cl)CBr (centres undefined) | inactive |
| COc1nc(NC2OC(COC(C)=O)C(OC(C)=O)C(OC(C)=O)C2OC(C)=O)c2c(OC(C)=O)cc(=O)oc2n1 (centres undefined) | inactive |
| CC[C@H]1CN2CCc3cc(OC)c(OC)cc3[C@@H]2C[C@@H]1C[C@H]1NCCc2c1[nH]c1ccc(O)cc21 | active |
| CC1=C(C(=O)OC23CC4CC(CC(C4)C2)C3)C(c2ccccc2OC(F)F)C(C(=O)OC23CC4CC(CC(C4)C2)C3)=C(C)N1 (centres undefined) | inactive |
| COc1cc(C2SCC(=O)N2c2ccc(-c3ccc(-n4c(-c5ccccc5)nc5ccccc5c4=O)cc3)cc2)ccc1O (centres undefined) | inactive |
| CCCCCC1CC=CC(=O)O1 (centres undefined) | inactive |
| CCC(=O)/C(=C\I)c1ccccc1 | inactive |

# ---- query compound ----
Identify the outcome logged in this assay for the compound shown: COc1nc(=O)n(C2CC(F)C(CO)O2)cc1C (centres undefined)
inactive

====

Test system: MOLT-4
assay.details: NCI tumour cell line growth inhibition, 48 h
Active and inactive are the calls of the source. Cut-off read from the data, not from the text of the source: active = GI50 up to about 1.1 µM and inactive = higher. Residues, ends and D or L forms follow the SMILES beside them.
value.kind: GI50

Example cases with answers are listed next.
| compound | GI50 |
| --- | --- |
| CC(C)OC(=O)c1ccc(NCC2=CC(=O)C=CC2=O)cc1Cl | 3.72 µM (inactive) |
| COc1cc(-c2cc(=O)c3c(O)c(OC)c(OC)c(OC)c3o2)cc(OC)c1OC [GARDENIN] | > 100 µM (inactive) |

Batch request: GI50 per item, same order as input.
1. CCN(CC)CSc1nc2ccccc2o1
2. CCOC(=O)/C=C/[C@@H](CC)O[Si](C(C)C)(C(C)C)C(C)C
3. Oc1cccc(-c2cn3cc(Cl)ccc3n2)c1
4. CCC(C)C(NC(=O)C(CC(C)C)NC(=O)CNC(=O)C(NC(=O)C1CCCN1C(=O)C(CC(C)C)NC(=O)C(N)Cc1ccccc1)C(C)CC)C(=O)NC(CC(C)C)C(N)=O (configuration not stated) (H-FLPIGLIL-NH2; configuration not given here)

1. > 100 µM (inactive)
2. > 100 µM (inactive)
3. 32.7 µM (inactive)
4. > 75 µM (inactive)

Give its GI50 value. Item: COc1ccc(NC(=O)C/C(C)=N\N=C(N)N)c([N+](=O)[O-])c1
> 100 µM (inactive)

====

System: SNB-75
assay.details: NCI tumour cell line growth inhibition, 48 h
The source made the active and inactive calls. No stated cut-off is given here; in the data, active = GI50 up to about 1.1 µM and inactive = higher.
Could you please report measured GI50 for the items listed next?

Example cases with answers are listed next.
| molecule | test.system | GI50 |
| --- | --- | --- |
| C=CCOC(=O)CCCCCCCCCCCCCCCOC(=O)C1=C(CCC[C@@H](C)O[Si](C)(C)C(C)(C)C)NC(=O)N2[C@H](CC3(CC/C=C\[C@H](CC)O[Si](C(C)C)(C(C)C)C(C)C)OCCO3)CC[C@H]12 | SNB-75 | > 100 µM (inactive) |
| N#Cc1c(-c2ccccc2)cc(-c2ccc(Cl)cc2)[nH]c1=S | SNB-75 | 37.1 µM (inactive) |
| Cc1nc(N)c(N2CCN(S(=O)(=O)N(Cc3ccccc3)Cc3ccccc3)CC2)c(O)n1 | SNB-75 | 10.9 µM (inactive) |
| Cc1cc2c(O)c(c1)CN(CC(=O)O)Cc1cc(C)cc(c1O)CN(CC(=O)O)Cc1cc(C)cc(c1O)CN(CC(=O)O)C2 | SNB-75 | > 100 µM (inactive) |
| ON1CCc2c([nH]c3ccccc23)C1c1ccc(Cl)cc1 (stereo not given) | SNB-75 | 30.3 µM (inactive) |

Batch request: GI50 per item, same order as input.
1. S=c1[nH]nc(Cc2ccccc2)c(=S)[nH]1
2. O=S(=O)(CC(Cl)c1ccccc1)c1nc2ccccc2s1 (stereo not given)
3. O=C(NC(Cc1ccccc1)P(=O)(O)c1ccccc1)OCc1ccccc1 (stereo not given)
4. O=C(CSc1nc2ccc(I)cc2c(=O)n1Cc1ccccc1)N/N=C/c1ccccc1

1. 23.1 µM (inactive)
2. 14.5 µM (inactive)
3. > 100 µM (inactive)
4. 11.1 µM (inactive)
